Taken from PubChem BioAssay (NCI).

Tested on: NCI-H226 lung
TEST_DETAILS: NCI-60 one-dose screen, 48 h (100 = growth as untreated, 0 = no growth, -100 = all killed)
MEASUREMENT_PARAMETERS: 10 µM unless noted
This is part of a sample that, as a whole, favours compounds with a hit. Of some 83,000 tested, about 20% had one in any assay.
Kindly supply the reported growth values for the records listed here.
Use % as the unit, but write only the number.

Please give the measured growth for this molecule: CCN(CC)CCCC(C)Nc1c2c(nc3ccc(OC)cc13)CCCC2 (stereo not drawn)
97.3

Further, for CC(C)Cc1ccc(C(C)C(=O)NCc2c[nH]c3ccc(Cl)cc23)cc1 (stereo not drawn) ?
92.3

Further, for Cc1nc2sc(C(=O)Nc3cccc(Br)c3)c(N)c2cc1C(=O)c1ccc(C(F)(F)F)cc1 ?
92

Further, for O=C(O)c1cn(C2CC2)c2cc(N3CCN(C(=O)C[n+]4cccc5ccccc54)CC3)c(F)cc2c1=O ?
101

Further, for Nc1nnc(C(=O)c2cnc3n(c2=O)CCCCC3)s1 ?
92.4

Further, for O=C(NCCN1CCOCC1)OCc1nc2nc(Cl)nc(N3CCOCC3)c2[nH]1 ?
62.6

Further, for COc1cc(/C=C/C(=O)c2c(C)oc3nc[nH]c(=O)c23)ccc1O ?
102

Further, for CN1CCN(c2c(F)cc(NC3=C(Cl)C(=O)c4ncccc4C3=O)cc2F)CC1 ?
97.1

Further, for N#C/C(=C\c1ccc(Br)cc1)n1nnc2cccc(F)c21 ?
41.9

Further, for COc1cccc(NC(=O)c2cccc(-c3cc(=O)c4c(OC)c(OC)c(OC)cc4o3)c2)c1 ?
63.3

Further, for COc1cc(OC)c(/C=C/C(=O)c2ccc(Nc3ncnc4ccccc34)cc2)c(OC)c1 ?
-17.3

Further, for COC(=O)Nc1ccc(NC(=O)OC)cc1 ?
96.7

Further, for Cc1ccccc1-c1cc(Cc2ccc(F)cc2)c(=O)[nH]n1 ?
105

* * *

System: PC-3 prostate
TEST_DETAILS: NCI-60 one-dose screen, 48 h (100 = growth as untreated, 0 = no growth, -100 = all killed)
MEASUREMENT_PARAMETERS: 10 µM unless noted
This is part of a sample that, as a whole, favours compounds with a hit. Of some 83,000 tested, about 20% had one in any assay.
MEASURED_ENDPOINT: growth (%)
Use % as the unit, but write only the number.

Please give the measured growth for this compound: COc1ccc(/C=N/C2=C(C#N)C(c3ccccc3[N+](=O)[O-])c3ccc4ccccc4c3O2)cc1 (stereo not drawn)
71.7

Further, for Cc1c(C2=CCCCC2)c2ccccn2c1C(=O)c1cccc(S(=O)(=O)N2CCOCC2)c1 ?
71.1

Further, for COc1cc(-c2cc(=O)oc3cc(O)ccc23)cc(OC)c1OC ?
71.9

* * *

Tested on: SNB-75 CNS
TEST_DETAILS: NCI-60 one-dose screen, 48 h
MEASUREMENT_PARAMETERS: 10 µM unless noted
About 83,000 compounds went through this panel and 20% of them were active in at least one assay; those are over-represented in the sample as a whole. The source made the active and inactive calls. How the source made its calls: active means growth percent below 10; inactive means the rest.
Reply using exactly one outcome from 1.0 = active, 0.0 = inactive

For CC(=O)c1cccc(NS(=O)(=O)c2cccc(C(=O)Nc3ccc(Br)cc3)c2)c1 , which call appears in the assay record?
0.0

Further, for CCN(CC)CCOC(COc1cc(C)cc(C)c1)COc1cc(C)cc(C)c1 ?
0.0

Further, for O=C1c2ccccc2-c2c1c1c(NCCCO)nc3ccccc3c1n2Cc1ccccc1 ?
1.0

Further, for COc1ccc(/C=C2\COc3ccc(-c4ccccc4)cc3C2=O)cc1O ?
0.0

Further, for COc1cc(C(=O)c2cnc(-c3ccc4cc[nH]c4c3)[nH]2)cc(OC)c1OC ?
1.0

Further, for CC1(C)CCCN1CCCN1c2ccccc2Sc2ccc(Cl)cc21 ?
0.0

* * *

Test system: SF-268 CNS
TEST_DETAILS: NCI-60 one-dose screen, 48 h
MEASUREMENT_PARAMETERS: 10 µM unless noted
About 83,000 compounds went through this panel and 20% of them were active in at least one assay; those are over-represented in the sample as a whole. Calls of active or inactive are those of the source. How the source made its calls: active means growth percent below 10; inactive means the rest.
Reply using exactly one outcome from active, inactive

For COc1cc(/C=C2\C(=O)N(Cc3ccc(Cl)cc3)c3ccccc32)cc(OC)c1OC , which call appears in the assay record?
inactive

Further, for CC1(C)NCCC[C@]2(C)[C@H]3CC=C4[C@@H]5C[C@@](C)(CO)CC[C@]5(C)CC[C@@]4(C)[C@]3(C)CC[C@@H]12 ?
inactive

Further, for COc1cc(NCCN(CC(C)C)C2CCCC2)c2ncccc2c1 ?
inactive

Further, for O=S(=O)(NCCCNc1nccc(-c2c(-c3ccc(F)c(O)c3)nc3sccn23)n1)c1ccc(F)cc1 ?
active

Further, for Nc1c(Cl)cc([N+](=O)[O-])cc1Br ?
inactive

Further, for O=C1OC(=O)C2C1CC=CC2c1ccccc1 (stereo not drawn) ?
inactive

Further, for COc1ccc2c(c1)OC13Oc4cc(OC)ccc4C=C1CCCC3=C2 ?
inactive

Further, for C=C(C)[C@@H]1CC[C@]2(C(=O)N3CCN(C)CC3)CC[C@]3(C)[C@H](CC[C@@H]4[C@@]5(C)CCC(=O)C(C)(C)[C@@H]5CC[C@]43C)[C@@H]12 ?
inactive

Further, for C#Cc1cccc(NC(=O)Nc2ccc(NC(=O)CCl)cc2)c1 ?
active

Further, for COC(=O)Nc1ccc(NC(=O)OC)cc1 ?
inactive

Further, for O=C(N/N=C/c1cccnc1)c1ccccc1Nc1cccc(C(F)(F)F)c1 ?
inactive

Further, for O=C(CN1CCOCC1)Nc1ccc2ncnc(Nc3ccc(Oc4cccc(C(F)(F)F)c4)c(Cl)c3)c2c1 ?
inactive

Further, for C=C(C)[C@@H]1CC[C@]2(C=O)CC[C@]3(C)[C@H](CC[C@@H]4[C@@]5(C)CCCNC(C)(C)[C@@H]5CC[C@]43C)[C@@H]12 ?
inactive

Further, for CCN1C(=O)N(CC)C2C1NN=c1s/c(=C3\C(=O)Nc4ccccc43)c(=O)n12 (stereo not drawn) ?
inactive

Further, for CC(=O)c1c(C)[nH]c(-c2nc3ccc(N4CCN(C)CC4)cc3[nH]2)c1-c1ccccc1 ?
inactive

Further, for CC(=O)c1cccc(NS(=O)(=O)c2cccc(C(=O)Nc3ccc(Br)cc3)c2)c1 ?
inactive

Further, for O=C1CCC(NC(=S)Nc2ccccc2)N1 (stereo not drawn) ?
inactive

Further, for FC(F)(F)Oc1cccc(-c2cc(NCCCCCCNc3cc(-c4cccc(OC(F)(F)F)c4)nc4ccc(N5CCCC5)cc34)c3cc(N4CCCC4)ccc3n2)c1 ?
active

Further, for O=c1[nH]c2c(s1)CCCC2CN1CCCCC1 (stereo not drawn) ?
inactive

Further, for CO[C@@H]1[C@H](N(C)C(=O)c2ccccc2)C[C@@H]2O[C@]1(C)n1c3ccccc3c3c4c(c5c6ccccc6n2c5c31)C(=O)NC4=O ?
inactive

Further, for COc1ccc(/C=C\c2nc3ccccc3s2)cc1OP(=O)(O)O ?
inactive

Further, for COc1c(Cl)cc(Cl)c2ccc(C=C3C(=O)N(C)C(=O)N(C)C3=O)nc12 ?
inactive

Further, for Cn1/c(=N/NC(N)=S)ccc2ccccc21 ?
inactive

Further, for CCc1nc(C)cn1C(=O)OCc1nc2nc(Cl)nc(N3CCOCC3)c2[nH]1 ?
active

Further, for NC(=O)c1ncn(C2OC(CO)C(O)C2O)n1 (stereo not drawn) ?
inactive

Further, for CCCCCCCCCCCCCCCCCCOc1ccccc1N ?
inactive

Further, for CCOc1ccc(/C=N/Nc2cc(C)nc3ccc(Cl)cc23)cc1 ?
inactive

Further, for CCN(CC)CCCC(C)Nc1cc(-c2cccc(OC(F)(F)F)c2)nc2ccc(N3CCCC3)cc12 (stereo not drawn) ?
inactive

Further, for CCCCCCc1nc2nc(Cl)c(Cl)nc2[nH]1 ?
inactive

Further, for COc1cc(C2CC(c3cccc(Nc4ccncc4)c3)=NN2c2ccccc2)cc(OC)c1OC (stereo not drawn) ?
inactive

Further, for O=C(O)c1ccc[n+](CC(=O)N2CCN(c3cc4c(cc3F)c(=O)c(C(=O)O)cn4C3CC3)CC2)c1 ?
inactive

Further, for CC(=O)c1c[nH]c2ccc(-c3ccnc(Nc4ccc(NC(=O)C5CCCC5)c(CN5CCOCC5)c4)n3)cc12 ?
active

Further, for COc1ccc(C(O)c2cc3c(N)c(C(=O)Nc4ccccc4)sc3nc2C)cc1 (stereo not drawn) ?
inactive

* * *

Test system: MALME-3M melanoma
TEST_DETAILS: NCI-60 one-dose screen, 48 h (100 = growth as untreated, 0 = no growth, -100 = all killed)
MEASUREMENT_PARAMETERS: 10 µM unless noted
This is part of a sample that, as a whole, favours compounds with a hit. Of some 83,000 tested, about 20% had one in any assay.
MEASURED_ENDPOINT: growth (%)
Use % as the unit, but write only the number.

Please give the measured growth for this compound: Fc1ccc2nc3c(cc2c1)CSc1nnc(-c2ccc[nH]c2=S)n1N3
112

Further, for FC(F)(F)c1cccc(Oc2ccc(Nc3ncnc4ccc(OCCCN5CCOCC5)cc34)cc2Cl)c1 ?
-4.17

Further, for O=C(N/N=C/c1cccnc1)c1ccccc1Nc1cccc(C(F)(F)F)c1 ?
65

Further, for CCC1(CC)NC(=O)c2c(c3ccc(Cl)c(Cl)c3n2C)C1C#N (stereo not given) ?
109

Further, for O=C(Nc1ccc(F)cc1)c1c(NC(=O)C(F)(F)F)sc2c1CCCCC2 ?
-21.1

Further, for O=S(=O)(O)c1cc(O)c2c(N=Nc3ccc(Nc4ccccc4)c4c(S(=O)(=O)O)cccc34)cc(S(=O)(=O)O)cc2c1 ?
130

Further, for Cc1ccc(S(=O)(=O)Nc2ccc(Cl)cc2)cc1 ?
100

Further, for CCOC(=O)N1CCc2c(sc3nc4nc[nH]n4c(=O)c23)C1 ?
102

Further, for COc1cc2c(cc1[N+](=O)[O-])-c1ccc([N+](=O)[O-])cc1/C2=N/NC(N)=S ?
93.7

Further, for COc1ccc(C(=O)/C=C/c2cn(Cc3ccc(Cl)cc3)c3ccccc23)cc1 ?
59.9

Further, for CCN1C(=O)/C(=c2\sc3n(c2=O)NC2C(N=3)N(CC)C(=O)N2CC)c2ccccc21 (stereo not given) ?
36.7

Further, for O=C(Nc1ccc2ncnc(Nc3ccc(Oc4cccc(F)c4)c(Cl)c3)c2c1)c1ccc(CNCCO)cc1 ?
2.04

Further, for CC1(c2ccccc2)NC(=O)N(CC(=O)Nc2cccc(I)c2)C1=O (stereo not given) ?
75.3

Further, for COc1ccccc1/C=N/NC1=NC2C(N1)N(C)C(=O)N2C (stereo not given) ?
93.6

Further, for C/C(=C(/c1ccccc1)c1ccc(OCC(O)CN2CCOCC2)cc1)c1ccccc1 (stereo not given) ?
75.3
